# Target System: human M3 receptor (Homo sapiens, UniProt P20309)
# Construct: expressed in transfected cells
# Sequence (P20309 whole entry): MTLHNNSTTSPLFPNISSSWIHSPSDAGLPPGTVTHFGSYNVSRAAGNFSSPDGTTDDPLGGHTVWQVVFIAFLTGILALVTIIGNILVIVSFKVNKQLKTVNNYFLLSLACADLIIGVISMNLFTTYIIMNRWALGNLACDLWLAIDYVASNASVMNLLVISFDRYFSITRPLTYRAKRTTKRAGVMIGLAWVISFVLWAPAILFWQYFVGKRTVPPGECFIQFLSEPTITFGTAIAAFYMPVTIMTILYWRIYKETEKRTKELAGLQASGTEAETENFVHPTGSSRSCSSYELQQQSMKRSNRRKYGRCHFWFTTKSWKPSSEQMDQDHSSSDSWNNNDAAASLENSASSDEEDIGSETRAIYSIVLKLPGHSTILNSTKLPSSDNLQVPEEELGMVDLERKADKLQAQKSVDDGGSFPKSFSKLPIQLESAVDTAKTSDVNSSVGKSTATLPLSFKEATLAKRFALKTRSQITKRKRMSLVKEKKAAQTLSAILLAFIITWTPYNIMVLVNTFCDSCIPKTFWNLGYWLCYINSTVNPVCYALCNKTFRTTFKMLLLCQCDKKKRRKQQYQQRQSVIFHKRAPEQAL
# Test Description: HTRF IP-One curve shift assay, M3
# Assay type: cell-based
# Assay Context: MK-4710 concentration […]
Reported Property: Emax at […] (%)
Give the value, in units of %, as a plain number.

| Compound | Recorded Value |
| --- | --- |
| CC1OC2(CS1)CN1CCC2CC1 (stereo not shown) [cevimeline, Cevimeline, reference compound] | 159 |

Prompt: Query (compound): `CCCCCOc1nsnc1C1=CCCCN1C` ; field requested: Emax at […]
Response: 45.6

Prompt: Record request: Emax at […] value, item CCCCCCOc1nsnc1C1=CCCN(C)C1 [xanomeline, reference compound]
Response: 81.5

Prompt: # lookup: Emax at […] of `CCCCCCCOc1nsnc1C1=CCCCN1C`
Response: 72.7

----------
# Target System: human M3 receptor (Homo sapiens)
# Construct: expressed in transfected cells
# Test Description: HTRF IP-One curve shift assay, M3
# Format: cell-based
# Assay Context: Emraclidine concentration 1110 nM, read-out: Emax
Reported Property: Emax
Give me the value, and tack the unit on after it.

| Compound | Target System | Emax |
| --- | --- | --- |
| CCCCCOc1nsnc1C1=CCCCN1C | human M3 receptor (Homo sapiens) | 54.8% |
| CCCCCCOc1nsnc1C1=CCCN(C)C1 [xanomeline, reference compound] | human M3 receptor (Homo sapiens) | 89.1% |
| CCCCCCCOc1nsnc1C1=CCCCN1C | human M3 receptor (Homo sapiens) | 64.6% |

Prompt: Item under review: CC1OC2(CS1)CN1CCC2CC1 (stereo not shown) [cevimeline, Cevimeline, reference compound] . Reported Emax?
Response: 125%

----------
# Target System: human M4 receptor (Homo sapiens, UniProt P08173)
# Construct: expressed in transfected cells
# Sequence (P08173 whole entry): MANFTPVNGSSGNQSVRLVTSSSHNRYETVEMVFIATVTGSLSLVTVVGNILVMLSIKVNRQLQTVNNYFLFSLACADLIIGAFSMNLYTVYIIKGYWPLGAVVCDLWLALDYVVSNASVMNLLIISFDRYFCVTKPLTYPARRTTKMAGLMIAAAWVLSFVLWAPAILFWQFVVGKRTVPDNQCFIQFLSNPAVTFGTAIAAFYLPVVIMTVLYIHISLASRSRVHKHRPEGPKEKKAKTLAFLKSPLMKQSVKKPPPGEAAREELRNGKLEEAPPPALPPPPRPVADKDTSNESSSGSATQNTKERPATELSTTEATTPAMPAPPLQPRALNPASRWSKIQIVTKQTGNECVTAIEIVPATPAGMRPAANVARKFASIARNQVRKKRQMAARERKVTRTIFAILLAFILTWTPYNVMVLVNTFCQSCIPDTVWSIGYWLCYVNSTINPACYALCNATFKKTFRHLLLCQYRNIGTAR
# Test Description: SPA GTP (GTPgS) binding curve shift assay, M4
# Assay type: biochemical
# Assay Context: MK-4710 concentration […]
Hi! Could you tag entries with Emax at […] below 30% as 1.0, and those at or above as 0.0? Much appreciated.

These recorded examples may help you get a feel for the data.
| Compound | Class |
| --- | --- |
| CCCCCCOc1nsnc1C1=CCCN(C)C1 [xanomeline, reference compound] | 1.0 |
| CCCCCCCOc1nsnc1C1=CCCCN1C | 1.0 |
| CCCCCOc1nsnc1C1=CCCCN1C | 1.0 |
| CC(=O)OCC[N+](C)(C)C [acetylcholine, reference compound] | 0.0 |

Continue with the next compound.
Prompt: In plain terms, does CC1OC2(CS1)CN1CCC2CC1 (centres unmarked) [cevimeline, Cevimeline, reference compound] come in under 30% for Emax at […]?
Response: 1.0

----------
# Target System: human M2 receptor (Homo sapiens, UniProt P08172)
# Test Description: SPA GTP (GTPgS) binding curve shift assay, M2
# Format: biochemical
# Assay Context: M2; Emraclidine concentration […]
Reported Property: Emax at […] (%)
// return numeric value only (unit: %, not printed)

| Compound | Target System | Emax at […], % |
| --- | --- | --- |
| CCCCCCCOc1nsnc1C1=CCCCN1C | human M2 receptor (Homo sapiens, UniProt P08172) | 48.7 |
| CC1OC2(CS1)CN1CCC2CC1 (stereo not shown) [cevimeline, Cevimeline, reference compound] | human M2 receptor (Homo sapiens, UniProt P08172) | 43.8 |

Prompt: Fill blank: measured Emax at […] of the compound CCCCCCOc1nsnc1C1=CCCN(C)C1 [xanomeline, reference compound] is ____.
Response: 41.7

Prompt: Using the record for `CCCCCOc1nsnc1C1=CCCCN1C` , report its Emax at […].
Response: 44.8

----------
# Target System: human M5 receptor (Homo sapiens)
# Construct: expressed in transfected cells
# Sequence (P08912 whole entry): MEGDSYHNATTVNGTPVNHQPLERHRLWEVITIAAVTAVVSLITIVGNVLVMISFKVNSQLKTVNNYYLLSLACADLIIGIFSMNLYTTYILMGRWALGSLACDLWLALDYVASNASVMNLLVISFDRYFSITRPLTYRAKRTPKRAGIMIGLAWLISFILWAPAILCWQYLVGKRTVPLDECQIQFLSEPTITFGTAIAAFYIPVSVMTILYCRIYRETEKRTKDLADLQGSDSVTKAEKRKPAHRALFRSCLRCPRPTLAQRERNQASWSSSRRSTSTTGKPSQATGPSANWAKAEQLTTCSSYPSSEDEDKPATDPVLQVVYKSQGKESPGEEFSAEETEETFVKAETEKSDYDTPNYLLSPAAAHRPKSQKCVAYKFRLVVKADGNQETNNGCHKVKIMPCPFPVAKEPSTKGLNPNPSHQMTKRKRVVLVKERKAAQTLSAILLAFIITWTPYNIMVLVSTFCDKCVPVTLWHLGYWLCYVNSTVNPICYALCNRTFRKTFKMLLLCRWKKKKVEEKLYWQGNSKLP
# Test Description: HTRF IP-One curve shift assay, M5
# Type: cell-based
# Assay Context: M5; Emraclidine concentration 41.2 nM; read-out: Emax
Classification field: Yes = Emax at or over 80%; No = Emax under 80%.

| Molecule | Class |
| --- | --- |
| CCCCCCCOc1nsnc1C1=CCCCN1C [KTX-593] | No |
| CC1OC2(CS1)CN1CCC2CC1 (centres unmarked) [cevimeline, Cevimeline, reference compound] | Yes |

Moving on to another molecule below.
Prompt: Has CCCCCOc1nsnc1C1=CCCCN1C [KTX-517] a recorded Emax greater than or equal to 80%?
Response: No

----------
The following compounds are listed with their measured Emax values.
# Target System: human M4 receptor (Homo sapiens, UniProt P08173)
# Construct: expressed in transfected cells
# Test Description: SPA GTP (GTPgS) binding curve shift assay, M4
# Format: biochemical
# Assay Context: Emraclidine concentration 1110 nM, read-out: Emax
Please respond with the number in % and leave the unit unwritten.

# example entries with known answers
| Compound | Target System | Emax / % |
| --- | --- | --- |
| CCCCCCOc1nsnc1C1=CCCN(C)C1 [xanomeline, reference compound] | human M4 receptor (Homo sapiens, UniProt P08173) | 78.7 |
| CCCCCOc1nsnc1C1=CCCCN1C [KTX-517] | human M4 receptor (Homo sapiens, UniProt P08173) | 62.4 |
| CC1OC2(CS1)CN1CCC2CC1 (stereo not shown) [cevimeline, Cevimeline, reference compound] | human M4 receptor (Homo sapiens, UniProt P08173) | 73.3 |

Prompt: Returns the measured Emax for the input compound. Input: CCCCCCCOc1nsnc1C1=CCCCN1C [KTX-593]
Response: 76.8

----------
# Target System: human M2 receptor (Homo sapiens)
# Sequence (P08172 1-466): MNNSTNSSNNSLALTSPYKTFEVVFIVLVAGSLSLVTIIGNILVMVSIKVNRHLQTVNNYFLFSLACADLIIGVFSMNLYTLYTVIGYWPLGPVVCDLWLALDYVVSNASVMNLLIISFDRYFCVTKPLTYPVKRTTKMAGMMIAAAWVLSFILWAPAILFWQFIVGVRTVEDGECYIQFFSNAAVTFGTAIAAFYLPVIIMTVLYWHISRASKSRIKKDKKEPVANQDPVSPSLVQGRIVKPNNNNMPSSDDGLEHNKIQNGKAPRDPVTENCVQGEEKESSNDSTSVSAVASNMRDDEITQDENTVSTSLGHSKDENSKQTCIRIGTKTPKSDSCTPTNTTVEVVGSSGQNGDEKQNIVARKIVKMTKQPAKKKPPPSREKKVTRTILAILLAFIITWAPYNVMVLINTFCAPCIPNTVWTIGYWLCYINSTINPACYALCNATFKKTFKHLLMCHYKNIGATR
# Test Description: SPA GTP (GTPgS) binding curve shift assay, M2
# Assay type: biochemical
# Assay Context: M2; M4 PAM MK-4710
Reported Property: τ (agonist pharmacology)
Answer field: number only, no words.

Observe how each entry below is paired with its result.
| Compound | Recorded Value |
| --- | --- |
| CCCCCCOc1nsnc1C1=CCCN(C)C1 [xanomeline, reference compound] | 0.0 |
| CCCCCCCOc1nsnc1C1=CCCCN1C | 0.0 |
| CCCCCOc1nsnc1C1=CCCCN1C | 0.1 |

Consider the record given below.
Prompt: Bench note: what τ (agonist pharmacology) did CC1OC2(CS1)CN1CCC2CC1 (stereo not shown) [cevimeline, Cevimeline, reference compound] show?
Response: 0.0

----------
# Target System: human M2 receptor (Homo sapiens)
# Test Description: SPA GTP (GTPgS) binding curve shift assay, M2
# Assay type: biochemical
# Assay Context: M2; Emraclidine concentration 0 nM
# Description: Membranes were prepared for GTPgS binding assays from CHO-K1 cells stably expressing human M2 or human M4 receptors. Cells were grown in 5-layer cell culture flasks. Cells were washed with 50 mL of PBS and then dissociated with 0.05% trypsin. […] According to Promega guidelines, membrane protein concentration was determined by BCA protein assay (Promega, Madison, WI). […] Raw data for all assays was transmitted directly from plate readers into the Beacon database for processing. […]
Reported Property: Emax (%)
Record the value in %, omitting the unit from your answer.

| Compound | Recorded Value |
| --- | --- |
| CCCCCCOc1nsnc1C1=CCCN(C)C1 [xanomeline, reference compound] | 36.2 |

Prompt: Please provide the recorded Emax for CC1OC2(CS1)CN1CCC2CC1 (stereo not shown) [cevimeline, Cevimeline, reference compound] , tested on human M2 receptor (Homo sapiens).
Response: 34.0

Prompt: Query Emax on human M2 receptor (Homo sapiens) for CCCCCOc1nsnc1C1=CCCCN1C [KTX-517]
Response: 35.6

Prompt: Item CCCCCCCOc1nsnc1C1=CCCCN1C [KTX-593] with human M2 receptor (Homo sapiens) - Emax?
Response: 39.8

----------
# Target System: human M4 receptor (Homo sapiens)
# Construct: expressed in transfected cells
# Test Description: SPA GTP (GTPgS) binding curve shift assay, M4
# Format: biochemical
# Assay Context: MK-4710 concentration 370 nM
Reported Property: pEC50
Reminder that pEC50 is minus the log10 of a molar concentration.

Prompt: What value of measured pEC50 is listed for CCCCCOc1nsnc1C1=CCCCN1C [KTX-517] ?
Response: 8.68
